- test system: human mAChR M4 (Homo sapiens)
- Construct: expressed in transfected cells
- Sequence (P08173 whole entry): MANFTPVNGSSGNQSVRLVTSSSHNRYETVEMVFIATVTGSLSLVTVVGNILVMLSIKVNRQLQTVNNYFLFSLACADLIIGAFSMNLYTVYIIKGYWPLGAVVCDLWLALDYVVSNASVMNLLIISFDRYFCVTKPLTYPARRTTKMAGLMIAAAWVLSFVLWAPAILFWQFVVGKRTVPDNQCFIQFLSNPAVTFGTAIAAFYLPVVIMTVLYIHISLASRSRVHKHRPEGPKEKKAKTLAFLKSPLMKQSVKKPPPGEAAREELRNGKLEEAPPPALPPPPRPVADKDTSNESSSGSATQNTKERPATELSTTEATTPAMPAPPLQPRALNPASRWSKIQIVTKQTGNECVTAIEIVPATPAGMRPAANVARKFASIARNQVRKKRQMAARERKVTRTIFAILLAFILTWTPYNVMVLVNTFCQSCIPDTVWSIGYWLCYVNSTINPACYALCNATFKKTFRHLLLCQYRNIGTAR
- method: mAChR M4 cell-based functional assay (calcium mobilization, CHO-K1 hM4-Gqi5 cells)
- test settings: CHO-K1, % ACh maximum at 30 μM; human M4
measured metric: Emax at 30 µM (%)

{"columns": ["compound", "test system", "value"],
 "data": [
  ["Cc1cc(C(=O)NCc2ncc(F)cn2)cnc1N1CCc2ncccc2C1 [compound 147]", "human mAChR M4 (Homo sapiens)", 52],
  ["Cc1cc(C(=O)NCc2cncs2)nnc1N1CCc2ncc(N3CCCn4nccc43)cc2C1 [Example 489]", "human mAChR M4 (Homo sapiens)", 95],
  ["Cc1cnc2c(c1)CN(c1nnc(C(=O)NCc3cnc4ccccc4c3)c(C)c1C)CC2 [Example 471]", "human mAChR M4 (Homo sapiens)", 91],
  ["Cc1cc(C(=O)NCc2ccc3c(c2)n(C)c(=O)n3C)cnc1N1CCc2ncccc2C1 [compound 158]", "human mAChR M4 (Homo sapiens)", 68]
]}
